Just for reference, PubChem BioAssay (EPA / NIEHS) is where these values come from.

- assayName: ATG_Sox_CIS: Attagene CIS-FACTORIAL HepG2 Assay for human SRY-box transcription factor (SOX) (AID 2282960)
- testContext: HepG2 Attagene cis-factorial SOX reporter, mRNA; actives raise or lower the signal
The source made the active and inactive calls. Rule for the calls: active = hit-call score of the fitted dose curve at least 0.9, where 1 is the maximum; inactive = score below 0.9.
propertyLabel: outcome

>>> print(df.to_string())
                                 compound  propertylabel    result
0       O=c1c(-c2ccc(O)cc2)coc2cc(O)ccc12        outcome  inactive
1                    CCCOC(=O)c1ccc(O)cc1        outcome  inactive
2  OC1CCC(C2CCCCC2)CC1 (stereo not drawn)        outcome  inactive

###

- assayName: APR_HepG2_MitoMass_72hr: Apredica 72-hour HepG2 Assay for Mitochondrial Mass (AID 2282924);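 note: MitoTracker Red CMXRos stain intensity per cell imaged as mitochondrial mass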
- testContext: high-content imaging, actives raise or lower the signal
The source made the active and inactive calls. Rule for the calls: active = hit-call score of the fitted dose curve at least 0.9, where 1 is the maximum; inactive = score below 0.9.
# valid calls are active, inactive; nothing else

Examples from the recorded data:
>>> print(df.to_string())
                                   compound  classification
0                      CN1CCC[C@H]1c1cccnc1        inactive
1                              Oc1cccc(O)c1        inactive
2               CC(C)(C)c1cccc(C(C)(C)C)c1O        inactive
3                        Cc1cc(C)c(O)c(C)c1        inactive
4                      CCCOC(=O)c1ccc(O)cc1        inactive
5  OCCC(F)(F)C(F)(F)C(F)(F)C(F)(F)C(F)(F)C(F)(F)C(F)(F)C(F)(F)F          active
6                            CCCCCCCCC(=O)O        inactive
7                             CCCCCCCC(=O)O        inactive

INPUT: For this molecule, state the assay outcome: `CC(C)(C)c1cc(C(C)(C)C)c(O)c(C(C)(C)C)c1`
OUTPUT: inactive

INPUT: Recorded call for `CCCCCCCCCCCCCCCS(=O)(=O)Oc1ccccc1` ?
OUTPUT: inactive

INPUT: Any idea what this test logged for `c1ccc2c(c1)ccc1ccccc12` ?
OUTPUT: inactive

INPUT: # outcome recorded in this test, key = `O=C(O)Cc1cc(I)c(Oc2cc(I)c(O)c(I)c2)c(I)c1`
OUTPUT: inactive

INPUT: What outcome does the record of this test show for `C#C[C@]1(O)CC[C@H]2[C@@H]3CCC4=CC(=O)CC[C@@H]4[C@H]3CC[C@@]21C` ?
OUTPUT: inactive

###

- assayName: Tanguay_ZF_120hpf_BRAI_legacy: (Legacy) Oregon State University Tanguay Lab 120 Hour Post-fertilization zebrafish Assay for Brain Malformation (AID 2283641)
Records with an inconclusive call do not appear. Active and inactive are the calls of the source. How the source made its calls: active means hit-call score of the fitted dose curve at least 0.9, where 1 is the maximum; inconclusive means response in the unintended direction; inactive means score below 0.9.
Hi! Could you answer with just one of these? t (active), f (inactive)

Consider the worked cases shown below.
                                   molecule  classification
0  NC(=O)N1C(=O)C(C(=O)c2cc(Cl)cs2)c2cc(F)c(Cl)cc21 (configuration not stated)               f
1               CC(C)(C)c1cccc(C(C)(C)C)c1O               f
2                   O=[N+]([O-])c1ccc(O)cc1               f
3                     Oc1cc2ccccc2c2ccccc12               t
4      CCCCCCCCOC(=O)CCCCCCCCC(=O)OCCCCCCCC               f
5   CC(C)(C)c1cc(C(C)(C)C)c(O)c(C(C)(C)C)c1               f

Turning now to a further molecule:
INPUT: What did the test return for `c1ccc2c(c1)Cc1ccccc1-2` ?
OUTPUT: f

###

- Read-out: CD38, CD38 (gene 952)
- assayName: BSK_SAg_CD38: BioMAP Diversity Plus: SAg Assay for CD38 Biomarker Activity (AID 2283087)
- testContext: primary human HUVEC with PBMC; actives raise or lower the signal
Activity calls are given as the source filed them. The calls were made as follows: active = hit-call score of the fitted dose curve at least 0.9, where 1 is the maximum; inactive = score below 0.9.
propertyLabel: AC50

Would you please look over these solved cases?
In [3]: df
Out[3]:
                                   molecule  propertylabel            result
0  CCC(=C(c1ccc(O)cc1)c1ccc(OCCN(C)C)cc1)c1ccccc1           AC50  8.38 µM (active)
1                        Cc1cc(C)c(O)c(C)c1           AC50          inactive
2                                 OC1CCCCC1           AC50          inactive
3  N#C[C@@H]1CC(F)(F)CN1C(=O)CNC1CC2CCC(C1)N2c1ncccn1 (some centres not stated)           AC50   4.4 µM (active)
4             CC(C)(C)c1ccc(O)c(C(C)(C)C)c1           AC50  14.5 µM (active)

Kindly give each listed record's AC50.
1. CC[C@H](c1ccc(O)cc1)[C@@H](CC)c1ccc(O)cc1
2. C=C(C)C(=O)OCCC(F)(F)C(F)(F)C(F)(F)C(F)(F)C(F)(F)C(F)(F)F
3. CCCCCCCC(=O)O
4. Cc1oc(-c2ccccc2)nc1CCOc1ccc(C[C@H](Nc2ccccc2C(=O)c2ccccc2)C(=O)O)cc1
5. COc1ccc([N+](=O)[O-])cc1N

OUTPUT:
1. 19.1 µM (active)
2. inactive
3. inactive
4. 28.6 µM (active)
5. inactive

Provide AC50 values for the following items, in order.
1. CCCCCCCCCCCCc1ccccc1S(=O)(=O)O
2. CCOC(=O)CC(O)(CC(=O)OCC)C(=O)OCC
3. CC(C)(C)CC(C)(C)c1ccc(O)c(-n2nc3ccccc3n2)c1

OUTPUT:
1: inactive; 2: inactive; 3: inactive

###

- testSystem: Retinoic acid receptor alpha (Homo sapiens) (UniProt P10276)
- Sequence (P10276 whole entry, looked up): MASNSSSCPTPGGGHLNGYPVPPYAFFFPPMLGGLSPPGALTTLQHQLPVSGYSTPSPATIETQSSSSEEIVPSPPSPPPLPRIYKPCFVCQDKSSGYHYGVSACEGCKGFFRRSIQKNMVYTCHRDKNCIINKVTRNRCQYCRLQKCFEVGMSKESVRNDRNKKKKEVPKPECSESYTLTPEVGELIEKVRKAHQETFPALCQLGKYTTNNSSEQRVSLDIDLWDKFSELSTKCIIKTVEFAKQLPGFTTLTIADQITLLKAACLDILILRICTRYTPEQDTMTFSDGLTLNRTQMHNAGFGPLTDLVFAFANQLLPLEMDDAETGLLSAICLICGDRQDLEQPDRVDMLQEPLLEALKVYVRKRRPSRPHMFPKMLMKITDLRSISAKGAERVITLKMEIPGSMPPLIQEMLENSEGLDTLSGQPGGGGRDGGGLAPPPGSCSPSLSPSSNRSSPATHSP
- assayName: ATG_RARa_TRANS: Attagene TRANS-FACTORIAL HepG2 Assay for human Retinoic Acid Receptor alpha (RARa) (AID 2283005)
Records with an inconclusive call do not appear. The source made the active and inactive calls. Rule for the calls: active = hit-call score of the fitted dose curve at least 0.9, where 1 is the maximum; inconclusive = response in the unintended direction; inactive = score below 0.9.
propertyLabel: outcome

>>> print(df.to_string())
                                   molecule                                testsystem  propertylabel    result
0               CC(C)(C)c1cccc(C(C)(C)C)c1O  Retinoic acid receptor alpha (Homo sapiens) (UniProt P10276)        outcome  inactive
1   O=C(O)c1ccccc1C(c1ccc(O)cc1)c1ccc(O)cc1  Retinoic acid receptor alpha (Homo sapiens) (UniProt P10276)        outcome  inactive
2  O=C1OC2(c3ccccc31)c1cc(Br)c(O)c(Br)c1Oc1c2cc(Br)c(O)c1Br  Retinoic acid receptor alpha (Homo sapiens) (UniProt P10276)        outcome  inactive
3                           CC(=O)CC(C)(C)O  Retinoic acid receptor alpha (Homo sapiens) (UniProt P10276)        outcome  inactive
4                CC(O)CO (stereo not drawn)  Retinoic acid receptor alpha (Homo sapiens) (UniProt P10276)        outcome  inactive

State the recorded outcome for every item in the following list.
1. CCCCC(CC)COC(=O)CCCCC(=O)OCC(CC)CCCC (stereo not drawn)
2. CC[C@H](C)[C@@H](C(=O)O)n1sc2ccccc2c1=O

OUTPUT:
1: inactive; 2: inactive

Hi! Can you tell me outcome for each of these molecules?
1. CC(O)C(=O)O (stereo not drawn)
2. CCc1nn(C2CCCCC2)c2cc(C3(C#N)CCC(C(=O)O)CC3)ccc12 (stereo not drawn)
3. Cc1cc(C)c(O)c(C)c1
4. COc1cc(CCC(=O)CC(=O)CCc2ccc(O)c(OC)c2)ccc1O
5. NCC(F)(F)C(F)(F)C(F)(F)C(F)(F)C(F)(F)C(F)(F)C(F)(F)F
6. O=C(O)Cc1cc(I)c(Oc2cc(I)c(O)c(I)c2)c(I)c1

OUTPUT:
["inactive", "inactive", "inactive", "inactive", "inactive", "inactive"]

###

- Read-out: Transforming Growth Factor (TGFA), TGFA (gene 7039)
- assayName: LTEA_HepaRG_TGFA: Life Technologies and Expression Analysis (LTEA) Assay for Transforming Growth Factor (TGFA) using HepaRG (AID 2283532)
- testContext: mRNA level, 48 h; actives raise or lower the signal
Active and inactive are the calls of the source. How the source made its calls: active means hit-call score of the fitted dose curve at least 0.9, where 1 is the maximum; inactive means score below 0.9.
Answer with one of the outcomes given here: 1 (active), -1 (inactive)

Illustrative cases are given below, each with its answer.
>>> print(df.to_string())
                           molecule  classification
0                    CCCCCCCCC(=O)O              -1
1                Nc1cccc2c(N)cccc12              -1
2  CCOC(=O)CC(O)(CC(=O)OCC)C(=O)OCC              -1

INPUT: Could you please tell me the result logged for `CC(C)CCCCCCOC(=O)CCCCC(=O)OCCCCCCC(C)C` in this assay?
OUTPUT: -1

INPUT: # outcome recorded in this test, key = `O=C(O)c1ccccc1C(c1ccc(O)cc1)c1ccc(O)cc1`
OUTPUT: -1

INPUT: Per the assay record, what outcome was assigned to `Cc1oc(-c2ccccc2)nc1CCOc1ccc(C[C@H](Nc2ccccc2C(=O)c2ccccc2)C(=O)O)cc1` ?
OUTPUT: 1

INPUT: For `CCCCCCCCCCCCN1CCCC1=O` , what call appears in the results of this test?
OUTPUT: -1

INPUT: Test call, this molecule: `CCCOc1sc(C(=O)N2CCC(c3cc(CN)ccc3F)CC2)c(C)c1Br`
OUTPUT: -1

INPUT: For `CC(C)(C)c1ccc(O)c(C(C)(C)C)c1` , which call appears in the assay record?
OUTPUT: -1

INPUT: What call does the record list for `CCN(CC)CCNc1ccc(CNC=O)c2sc3ccc(OC)cc3c(=O)c12` ?
OUTPUT: 1
